# Procedure text: S16 Schwann cell PMP22 intronic element beta-lactamase assay (AID 624044); note: nearly all actives have a fitted effect of over 15% in size
# Condition: S16 rat Schwann cells, PMP22 element beta-lactamase FRET, 24 h; series mostly up to 38.3 µM
# Description: Description: Charcot-Marie-Tooth-Association [CMTA] National Center for Advancing Translational Sciences [NCATS] […] S16 Schwann cell PMP22 intronic element beta-lactamase assay The beta-Lac-expressing S16 cells were seeded in black clear-bottom 1536 well plates at between 500-750 cells/6uL in DMEM medium containing 10% FBS, w/o phenol red. […] The concentration-effect curves were then classified based on curve quality (r2), response magnitude and degree of measured activity.
Inconclusive results are not listed. The source made the active and inactive calls. Calls come from the whole dose curve.
In this exercise, the only acceptable responses are 1 (active), -1 (inactive)

Before answering, review these 8 worked examples.
Molecule	Label
C[C@H](Cn1cnc2c(N)ncnc21)OCP(=O)(O)O	-1
CCCCCCCCCCCCCCCCCCCCCCO	-1
N[C@@H](Cc1cc(I)c(Oc2cc(I)c(O)c(I)c2)c(I)c1)C(=O)O	-1
Cc1nc2n(c(=O)c1CCN1CCC(c3noc4cc(F)ccc34)CC1)CCCC2	-1
CNC[C@@H](O)[C@@H](O)[C@H](O)[C@H](O)CO	-1
C[C@]12CCC(=O)C=C1CC[C@@H]1[C@H]2[C@@H](O)C[C@@]2(C)[C@H]1CC[C@]2(O)C(=O)CO	-1
CCOc1cc(CC(=O)N[C@@H](CC(C)C)c2ccccc2N2CCCCC2)ccc1C(=O)O	-1
CC1(C)NC(=O)N(c2ccc([N+](=O)[O-])c(C(F)(F)F)c2)C1=O	-1

stdin: Could you kindly confirm the outcome this assay logged for `Oc1ccc(OCc2ccccc2)cc1` ?
stdout: 1

stdin: Could you kindly confirm the outcome this assay logged for `CCOC(=O)c1c(C)n(C)c2ccc(O)cc12` ?
stdout: -1

---

# Procedure text: ZIKV-mCherry secondary qHTS for Zika virus inhibitors (AID 1347158); note: potency is the fitted concentration of half-maximal effect
# Condition: Vero cells, ZIKV-mCherry infection imaging, 48-72 h; series mostly up to 49.2 µM
Results filed as inconclusive are left out. The source made the active and inactive calls. The call rests on the fitted dose curve; in most records, active means well fitted inhibition curve with a large enough effect; inconclusive means small, poorly fitted or top-dose-only effect; inactive means no such curve, though single readings can be large or run the other way.

Sample smiles	Potency
C=C(c1ccc(C(=O)O)cc1)c1cc2c(cc1C)C(C)(C)CCC2(C)C	7.08 µM (active)
N[C@@H](Cc1cc(I)c(Oc2cc(I)c(O)c(I)c2)c(I)c1)C(=O)O	inactive
O=c1c(O)c(-c2cc(O)c(O)c(O)c2)oc2cc(O)cc(O)c12	inactive
O=c1c(O)c(-c2ccc(O)cc2O)oc2cc(O)cc(O)c12	inactive

---

# Procedure text: Quantitative High-Throughput drug screen in 47 multiple myeloma cell lines against the NCATS MIPE library collection: KMS11_JCRBsus cell viability assay (AID 1919873); note: nearly all actives have a fitted effect of over 50% in size
# Condition: KMS11 myeloma viability, CellTiter-Glo ATP luminescence, 48 h; series mostly up to 45.8 µM
Inconclusive results are not listed. Calls of active or inactive are those of the source. Calls follow the shape of the dose curve; as a rule, active = well fitted cell-killing curve with a large enough effect; inconclusive = small, poorly fitted or top-dose-only effect, or effect the other way; inactive = no such curve, though single readings can be large or run the other way.
In this exercise, the only acceptable responses are t (active), f (inactive)

Before answering, review these 2 worked examples.
Compound	Label
Cc1nc2n(c(=O)c1CCN1CCC(c3noc4cc(F)ccc34)CC1)CCCC2	f
COC1=C(OC)C(=O)C(CCCCCCCCCCO)=C(C)C1=O	t

Next up:
stdin: Could you kindly confirm the outcome this assay logged for `CCCCc1ccc2nc(NC(=O)OC)[nH]c2c1` ?
stdout: t
